Reference source: patent US20110053897A1

# Target under test: Syk kinase (Homo sapiens)
# Construct: purchased
# Assay protocol: Syk kinase inhibition, Caliper LabChip off-chip mobility-shift kinase assay
# Assay type: biochemical
# Experimental conditions: read-out: Syk Enzyme IC50
Test readout: IC50 (nM)

Recorded results for 2 compounds are shown here.
{"columns": ["Mol smiles", "IC50, nM"],
 "data": [
  ["CCn1ccc2cc(Nc3cnccn3)nc(NC(C)(C)C)c2c1=O", 147],
  ["Cc1ccnc(Nc2cc3cc[nH]c(=O)c3c(N3CC[C@@H](O)C3)n2)c1", 967]
]}

I = O=c1[nH]ccc2cc(Nc3ccc(C(F)(F)F)cn3)nc(Nc3ccc(N4CCOCC4)cc3)c12
II = Cc1ncc(-c2cc3cc[nH]c(=O)c3c(Nc3ccc(N4C[C@@H](C)O[C@@H](C)C4)nc3)n2)cn1
Larger number for IC50: I , or II ? Kindly state the label of the option you pick.
I

----------
# Target under test: Syk kinase (Homo sapiens, UniProt P43405)
# Construct: purchased
# Assay protocol: Syk kinase inhibition, Caliper LabChip off-chip mobility-shift kinase assay
# Format: biochemical
# Experimental conditions: read-out: Syk Enzyme IC50
Test readout: IC50 (µM)

Recorded results for 3 compounds are shown here.
{"columns": ["Compound", "Measure unit", "IC50"],
 "data": [
  ["CC(C)(CO)Nc1nc(Nc2cnccn2)cc2ccn(CCO)c(=O)c12 [compound 473]", "µM", 0.114],
  ["COCCNc1nc(-c2cnc(N)nc2)cc2cc[nH]c(=O)c12 [compound 447]", "µM", 0.101],
  ["Cc1cc(Nc2nc(C(C)C)cc3cc[nH]c(=O)c23)ccc1C1CCN(C2CC2)CC1 [compound 231]", "µM", 0.864]
]}

A = CCN(CC)CCNC(=O)c1ccc(Nc2nc(Nc3cc(C)ccn3)cc3ccn(C)c(=O)c23)cc1 [compound 331]
B = COc1cncc(-c2cc3cc[nH]c(=O)c3c(Nc3ccc(C4CCN(C(=O)C(C)(C)N)CC4)c(C)c3)n2)n1 [compound 52]
C = COCCC(=O)N1CCC(c2ccc(Nc3nc(-c4cncc(OC)n4)cc4cc[nH]c(=O)c34)cc2)CC1 [compound 26]
D = Cc1ccnc(Nc2cc3ccn(CCO)c(=O)c3c(N[C@H]3CCC[C@H]3O)n2)c1 (racemic) [compound 368]
E = CC(C)Nc1nc(Nc2cnccn2)cc2ccn(CCN3CCOCC3)c(=O)c12 [compound 320]
Kindly order the items shown according to IC50, from the highest value down. To answer, arrange all of the labels according to the requested order.
A, E, C, B, D

----------
# Target under test: Syk kinase (Homo sapiens)
# Construct: purchased
# Assay protocol: Syk kinase inhibition, Caliper LabChip off-chip mobility-shift kinase assay
# Type: biochemical
# Experimental conditions: Caliper LabChip assay; read-out: Syk Enzyme IC50
Test readout: IC50 (nM)

Recorded results for 6 compounds are shown here.
{"columns": ["Compound", "Measure unit", "IC50"],
 "data": [
  ["CC(C)(C)Nc1nc(Nc2cc(Oc3cn[nH]c3)ncn2)cc2ccn(C[C@H](O)CO)c(=O)c12", "nM", 21],
  ["Cc1ccnc(Nc2cc3ccn(CCO)c(=O)c3c(NCC(F)F)n2)c1", "nM", 117],
  ["CC(C)(C)Nc1nc(Nc2cc(C3(O)CCC3)ccn2)cc2ccn(CCO)c(=O)c12", "nM", 76],
  ["NC(=O)Cn1ccc2cc(-c3cnc(N)nc3)nc(NC3CC(F)(F)C3)c2c1=O", "nM", 175],
  ["O=c1c2c(N[C@H]3CC[C@@H](O)CC3)nc(Nc3cnccn3)cc2ccn1CC(O)C(F)(F)F (stereo partly drawn)", "nM", 56],
  ["CC(C)(C)Nc1nc(Nc2cc(-c3ncccn3)ccn2)cc2ccn(CCO)c(=O)c12", "nM", 9]
]}

1 = Cn1cc(Cl)c2cc(Nc3cnccn3)nc(N[C@H]3CC[C@@H](O)CC3)c2c1=O
2 = CCn1ccc2cc(-c3cnc(N)nc3)nc(N[C@H]3CC[C@@H](CO)C3)c2c1=O
3 = C[C@H](O)c1ccnc(Nc2cc3ccn(CCO)c(=O)c3c(NC(C)(C)C)n2)c1
Kindly order the items shown according to IC50, from the highest value down. To answer, arrange all of the labels according to the requested order.
1, 3, 2
(1: 144 nM, 3: 13 nM, 2: 5 nM)
